# Tested on: KM12 colon
# test.details: NCI tumour cell line growth inhibition, 48 h
measurement.name: TGI

In [3]: df
Out[3]:
                                mol  endpoint_value
0  Oc1oc(-c2ccccc2)nc1/C=C1/C=NN=N1        > 100 µM

[ask] Record CCC(=O)n1c(=O)n(-c2ccc([N+](=O)[O-])cc2)c(=O)n1C(=O)CC : what is its TGI with KM12 colon?
[reply] > 100 µM

[ask] Record lookup: for KM12 colon, what TGI belongs to C[n+]1ccc2[nH]c3ccccc3c2c1 ?
[reply] > 100 µM

* * *

# TGI values compiled below
# System: OVCAR-3 ovarian
# test.details: NCI tumour cell line growth inhibition, 48 h
Your answer should be a plain number; it is taken to be in µM.

[ask] // returns reported TGI for input C[C@@]1(CBr)C[C@@](C)(/C=C/Cl)[C@@H](Cl)C[C@H]1Cl
[reply] 22.8

[ask] I'd like to know its TGI. The compound in question is O=C1CSC(c2c(O)ccc3ccccc23)N1n1c(=S)[nH]nc(/C=C/c2c(O)ccc3ccccc23)c1=O (centres undefined)
[reply] 17.7
